- Test system: U-251
- RUN_DESCRIPTION: NCI tumour cell line growth inhibition, 48 h
The source made the active and inactive calls. Rule as the data show it: active = GI50 up to about 1.1 µM and inactive = higher.
API: response.call in t (active), f (inactive)

## Task Entry O=C(Nc1ccc(Cl)cc1)[C-](C(=O)c1ccc(Br)cc1)[n+]1cccc(-c2ccc(Cl)cc2)n1 : call = ?
## Result f

## Task Entry O=C1CN2C(Cl)(Cl)C2(c2ccccc2)c2cc(Cl)ccc2N1CC(F)(F)F (stereo not given) : call = ?
## Result f

###

Answer each item with its documented GI50.
- Test system: A498
- RUN_DESCRIPTION: NCI tumour cell line growth inhibition, 48 h
The source made the active and inactive calls. No stated cut-off is given here; in the data, active = GI50 up to about 1.1 µM and inactive = higher.

Illustrative cases are given below, each with its answer.
[
  {
    "COMPOUND": "Cn1c2c(c3ccccc31)CCN1C(=O)C3SC21C1C(=O)N(c2ccccc2)C(=O)C31 (stereo not drawn)",
    "GI50": "26.4 µM (inactive)"
  },
  {
    "COMPOUND": "C[N+]1(C)C/C(=C\\c2ccc(O)cc2)C(=O)/C(=C/c2ccc(O)cc2)C1",
    "GI50": "85.1 µM (inactive)"
  },
  {
    "COMPOUND": "CCCOC(=O)C1CCC(=O)N1C(=O)C(C)Cl (stereo not drawn)",
    "GI50": "> 100 µM (inactive)"
  },
  {
    "COMPOUND": "COc1ccc(NCc2cccc3c(=O)c4ccc(Cl)cc4oc23)cc1",
    "GI50": "> 100 µM (inactive)"
  },
  {
    "COMPOUND": "CC(=O)OC1C[C@H]2C(OC(=O)c3ccccc3)C3C4(OC(C)=O)COC4C[C@H](OC(C)=O)[C@@]3(C)C(OC(C)=O)[C@H](OC(C)=O)C(=C1C)C2(C)C (stereo partly drawn)",
    "GI50": "24.4 µM (inactive)"
  },
  {
    "COMPOUND": "O=C1OC(C2Cc3ccc4c(c3C2=O)CCCC4)c2ccccc21 (stereo not drawn)",
    "GI50": "16.8 µM (inactive)"
  },
  {
    "COMPOUND": "O=C(CCc1ccc(O)c(O)c1)NCCc1cc(O)cc(O)c1",
    "GI50": "> 100 µM (inactive)"
  }
]

Please examine the following record next.
## Task Write down the reported GI50 (system: A498) of COC(=O)Nc1nc2cc(NC(=O)c3ccc(I)cc3)ccc2[nH]1
## Result > 100 µM (inactive)
